- assay-system: ABHD6 (Mus musculus)
- protocol: biochemical
- measurement-parameters: in vitro competitive ABPP
quantity-name: IC50

CC(C)n1cc(CN2CC3CN(C(=O)OC(C(F)(F)F)C(F)(F)F)CC3C2)c(-c2ccccc2)n1 (stereo not shown); 1000 to 10000 nM
CCn1cc(CN2CC3CN(C(=O)OC(C(F)(F)F)C(F)(F)F)CC3C2)c(-c2cccc(N3CCCC3)c2)n1 (stereo not shown); 1000 to 10000 nM
CC(=O)N1CCC(n2nc(C)cc2CN2CC3CN(C(=O)OC(C(F)(F)F)C(F)(F)F)CC3C2)CC1 (stereo not shown); 1000 to 10000 nM
Cc1cccc(CN2CC3CN(C(=O)OC(C(F)(F)F)C(F)(F)F)CC3C2)c1N1CCOCC1 (stereo not shown); 1000 to 10000 nM

----------
- assay-system: ABHD6 (Mus musculus, UniProt Q8R2Y0)
- protocol: biochemical
- measurement-parameters: in vitro competitive ABPP
Listing of recorded IC50 by entry.
quantity-name: IC50

O=C(ON1C(=O)CCC1=O)N1CC2CN(Cc3cccc(-c4ccccc4)c3)CC2C1 (stereo not drawn); 1000 to 10000 nM
O=C(OC(C(F)(F)F)C(F)(F)F)N1CC2CN(Cc3ccc(Cl)cc3N3CCC4(CCNC4=O)CC3)CC2C1 (stereo not drawn); 1000 to 10000 nM
CS(=O)(=O)N1CCN(c2cc(Cl)ccc2CN2CC3CN(C(=O)OC(C(F)(F)F)C(F)(F)F)CC3C2)CC1 (stereo not drawn); 100 to 1000 nM

----------
- assay-system: ABHD6 (Mus musculus)
- protocol: In vitro competitive activity-based protein profiling (Table 2, % inhibition at 1 μM)
- Assay type: biochemical
- measurement-parameters: read-out: % Inhibition at 1 μM ABHD6
quantity-name: inhibition at 1 µM

Cn1nc(-c2cccc(F)c2)cc1CN1CC2CN(C(=O)OC(C(F)(F)F)C(F)(F)F)CC2C1 (stereo not shown); 25 to 75%
Cc1cccc(CN2CC3CN(C(=O)ON4C(=O)CCC4=O)CC3C2)c1N1CCN(C)CC1 (stereo not shown); < 25%
CC(=O)N1CCN(c2ccc(CN3CC4CN(C(=O)ON5C(=O)CCC5=O)CC4C3)c(F)c2)CC1 (stereo not shown); < 25%
O=C(ON1C(=O)CCC1=O)N1CC2CN(Cc3ccc(C(=O)N4CCCC4)cc3F)CC2C1 (stereo not shown); < 25%

----------
Listing of recorded IC50 by entry.
- assay-system: ABHD6 (Mus musculus, UniProt Q8R2Y0)
- Sequence (Q8R2Y0 1-336): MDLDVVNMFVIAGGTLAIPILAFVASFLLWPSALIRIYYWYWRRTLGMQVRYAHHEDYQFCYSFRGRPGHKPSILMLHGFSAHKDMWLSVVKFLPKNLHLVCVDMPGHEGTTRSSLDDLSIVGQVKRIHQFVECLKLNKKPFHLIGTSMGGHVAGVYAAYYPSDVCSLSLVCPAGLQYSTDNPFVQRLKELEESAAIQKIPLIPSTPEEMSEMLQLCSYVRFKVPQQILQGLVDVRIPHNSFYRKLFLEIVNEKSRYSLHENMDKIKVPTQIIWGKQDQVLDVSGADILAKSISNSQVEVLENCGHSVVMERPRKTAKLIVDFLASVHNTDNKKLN
- protocol: biochemical
- measurement-parameters: in vitro competitive ABPP
quantity-name: IC50

CC(=O)NC1CCN(c2cccc(CN3CC4CN(C(=O)OC(C(F)(F)F)C(F)(F)F)CC4C3)c2C)CC1 (stereo not shown); 1000 to 10000 nM
CC(=O)N1CCC2(CCN(c3ccccc3CN3CC4CN(C(=O)OC(C(F)(F)F)C(F)(F)F)CC4C3)C2)C1 (stereo not shown); 1000 to 10000 nM
O=C(OC(C(F)(F)F)C(F)(F)F)N1CC2CN(Cc3ccc(N4CCOCC4)cc3OC(F)(F)F)CC2C1 (stereo not shown); 100 to 1000 nM
CC1COCCN1c1ccc(CN2CC3CN(C(=O)ON4C(=O)CCC4=O)CC3C2)c(Cl)c1 (stereo not shown); 1000 to 10000 nM
Cc1c(CN2CC3CN(C(=O)OC(C(F)(F)F)C(F)(F)F)CC3C2)cccc1N1CCCCC1 (stereo not shown); > 10000 nM
O=C(OC(C(F)(F)F)C(F)(F)F)N1CC2CN(Cc3ccc(N4CCOCC4)cc3Cl)CC2C1 (stereo not shown); 1000 to 10000 nM
O=C(OC(C(F)(F)F)C(F)(F)F)N1CC2CN(Cc3ccc(C(=O)N4CCCCC4)c(OC(F)(F)F)c3)CC2C1 (stereo not shown); 1000 to 10000 nM
